Tested on: SK-OV-3 ovarian
assay summary: NCI tumour cell line growth inhibition, 48 h
readout label: TGI

Some entries whose results are on file:
CC(=O)c1cc(C(=O)c2ccc3c(c2)Sc2ccccc2N3)c2cc(C)ccn12; > 100 µM
COc1cc2c(cc1OC)C(=O)/C(=C/c1cc(OC)c(OC)c(OC)c1)C2; > 100 µM

Notebook: O=C(COC(=O)c1cccc2c(=O)c3ccccc3[nH]c12)Nc1ccc(C(=O)O)cc1 , TGI read as > 100 µM

What the record says about COc1ccc(C2C3CCc4ccccc4C3=NN2S(=O)(=O)c2ccc(/C=C/C(=O)O)cc2)cc1 (centres undefined) : TGI is 4.72 µM

###

Test system: SF-295 CNS
assay summary: NCI tumour cell line growth inhibition, 48 h
Each record here notes measured TGI.

Reference set (4 entries):
OCCN1CCN2C=C(C3CCCC4N(CCO)CCN34)CCC21 (stereo not given); > 100 µM
COc1ccc(C(=O)C(c2ccc(OCc3ccccc3)cc2)c2ccc(OCc3ccccc3)cc2)cc1; > 100 µM
CC(=O)Nc1nnc(S(C)(=O)=O)s1; > 100 µM
CC(C)(C)CC(N)=O; > 100 µM

Okay, next one:
// field: TGI; key: O=C(OCc1ccccc1)N(CCCCN(CCCNCc1ccccc1)C(=O)OCc1ccccc1)CCCNCc1ccccc1 ; value = > 100 µM

###

Test system: KM12 colon
assay summary: NCI tumour cell line growth inhibition, 48 h
# TGI per record follows

CC1=CC(N2C(=O)C(C)=CC2O)NC1=O (stereo not drawn); > 100 µM

For this molecule ( O=C(NCCNCCCNC(=O)c1cc(-c2ccccc2)nc2ccccc12)c1cccc(OCc2ccccc2)c1OCc1ccccc1 ), measured TGI is 3.37 µM

Lab book: TGI of COC(=O)[C@H](CC(C)C)Nc1c(O)c2c(c(O)c1Cl)C(=O)C=CC2=O noted as > 10 µM

Noted for NC(N)=N/N=C/c1ccc(-c2ccc(-c3cc(Cl)cc(Cl)c3)s2)cc1 : its TGI reads 3.56 µM

The molecule identified as CSc1ccc(/C=C2\N=C(c3ccccc3)N(c3nc4cc(C)c(C)cc4s3)C2=O)cc1 registered its TGI at > 100 µM

Looking up Cn1c(NCC(O)CN2CCCC2)cc(=O)n(C)c1=O (stereo not drawn) , I found its TGI recorded as > 100 µM

Field TGI (entry NC12CCC(CC1=O)C2 (stereo not drawn) ) reads > 100 µM

Entry CC(=O)OC12c3ccccc3-c3ccccc3C1C1C(=O)OC(=O)C12 (stereo not drawn) — recorded TGI = > 10 µM

###

System: EKVX NSCLC
assay summary: NCI tumour cell line growth inhibition, 48 h
TGI listing for selected compounds.

Solved cases (3 shown):
CC(C)(C)c1cc2c(O)c(c1)Cc1cc(C(C)(C)C)cc(c1O)Cc1cc(C(C)(C)C)cc(c1O)Cc1cc(C(C)(C)C)cc(c1O)Cc1cc(C(C)(C)C)cc(c1O)Cc1cc(C(C)(C)C)cc(c1O)Cc1cc(C(C)(C)C)cc(c1O)Cc1cc(C(C)(C)C)cc(c1O)C2; > 50 µM
COc1ccc2nc3cc(Cl)ccc3c(Sc3ccc([N+](=O)[O-])cc3)c2c1; > 100 µM
COc1ccc(C2C3CCc4ccccc4C3=NN2S(=O)(=O)c2ccc(/C=C/C(=O)O)cc2)cc1 (stereo unspecified); > 100 µM

The reported EKVX NSCLC TGI of CC1=CC(N2C(=O)C(C)=CC2O)NC1=O (stereo unspecified) is > 100 µM

Kindly note: EKVX NSCLC, COc1cccc(N(CN2C(=O)CCC2C(=O)O)C(C)=O)c1 (stereo unspecified) , TGI value reported: > 100 µM

Reported EKVX NSCLC TGI for item O=C1CSC(c2c[nH]c3ccccc23)N1c1ccccc1[N+](=O)[O-] (stereo unspecified) was > 100 µM

Tested system EKVX NSCLC; TGI recorded for O=C1c2cccc(NCCN=Cc3ccccc3O)c2C(=O)c2c(NCCN=Cc3ccccc3O)cccc21 was 8.39 µM

So the reported TGI for CCOC(=O)c1c2c(c(O)c3ccccc3c(O)n(Cc3ccccc3)c1C)C(=O)C=CC2=O , on EKVX NSCLC, turned out to be > 100 µM
